Attribute: protein stability index
B1: ANKRD44 (parent)
chain: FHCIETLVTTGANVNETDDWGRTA

variants of: B1; experiment: protein stability index of a GFP-peptide fusion (GPS, HEK-293T) (PSI 1-6); higher = more stable; settings: c terminus: a fixed tail appended;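 further: lentivirally expressed fusions sorted by FACS into six bins by GFP to DsRed ratio, PSI derived from sequencing read proportions per bin multiplied by bin number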
Please reply with the value in numeric form only.

Reference set, count: 4
>>> measured_value("L7K")
2.89
>>> measured_value("F1L")
3.31
>>> measured_value("C3W")
2.47
>>> measured_value("F1S")
4.04

Ask | protein stability index for "R22F" ?
Reply | 1.65

Ask | I have this variant here, "D19L" , and I need its recorded protein stability index.
Reply | 2.09

Ask | Form field: reported protein stability index of "G11L"
Reply | 2.44

Ask | Param item = "L7C" ; retrieve measured protein stability index.
Reply | 2.01

Ask | Given "I4P" , state its recorded protein stability index.
Reply | 2.19

Ask | protein stability index lookup needed for "L7I" , thanks.
Reply | 2.23

Ask | Find the recorded protein stability index belonging to "L7R" and report it.
Reply | 2.66
